- assayed system: Caspase-10 (Homo sapiens)
- Construct: mixing the compounds with the respective active caspases; purchased BioVision K160-100
- Sequence (Q92851 220-415 limits assumed): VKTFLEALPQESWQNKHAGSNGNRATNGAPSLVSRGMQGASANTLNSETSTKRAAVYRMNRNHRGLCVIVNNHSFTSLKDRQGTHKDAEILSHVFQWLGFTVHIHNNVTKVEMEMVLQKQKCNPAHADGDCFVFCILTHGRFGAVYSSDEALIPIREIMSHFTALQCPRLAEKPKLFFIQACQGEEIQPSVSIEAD
- Sequence (Q92851 416-521 limits assumed): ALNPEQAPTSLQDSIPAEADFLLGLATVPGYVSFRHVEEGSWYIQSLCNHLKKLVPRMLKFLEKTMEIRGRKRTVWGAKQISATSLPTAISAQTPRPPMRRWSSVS
- test details: Caspase-10 inhibitor screening assay (BioVision kit, AEVD-AFC)
- Format: biochemical
- recorded conditions: 100 uM; read-out: % Inhibition at 100 uM Casp10
# label = Fulfilled if inhibition at 100 µM >= 50% else Not fulfilled

molecule	assigned category
CS(=O)(=O)/C=C/[C@H](CC(=O)O)NC(=O)[C@H]1CCC(=O)N1 [Compound 24]	Not fulfilled
CS(=O)(=O)/C=C/[C@H](CC(=O)O)NC(=O)[C@@H](N)CCC(=O)O [Compound 22, Glu-Asp methylsulfone]	Not fulfilled
CS(=O)(=O)/C(Cl)=C/[C@@H](N)CC(=O)O [Compound 4]	Not fulfilled
CCC(C)[C@H](NC(=O)[C@H](CCC(=O)O)NC(=O)[C@@H](NC(=O)OCc1ccccc1)C(C)C)C(=O)N[C@H](/C=C/S(C)(=O)=O)CC(=O)O (stereo partly drawn) [Compound 38, Z-Val-Glu-Ile-Asp-methyl vinyl sulfone]	Fulfilled

Consider now this further molecule.
[Q] Form field: inhibition at 100 µM at least 50%? Entry: CC(C)(C)[C@H](NC(=O)c1ccc2ncccc2c1)C(=O)N1CCCC1C(=O)N[C@H](/C=C/S(C)(=O)=O)CC(=O)O (stereo in doubt) [Compound 10]
[A] Fulfilled

Reference for the values: patent US10975119B2
